Source: PubChem BioAssay AID1490

# targetSystem: 4'-phosphopantetheinyl transferase ffp (Bacillus subtilis)
# experiment: qHTS Assay for Inhibitors of Bacillus subtilis Sfp phosphopantetheinyl transferase (PPTase); also: potency is read from the fitted curve at half-maximal effect;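 also: the enzyme is Sfp with the accession as filed and its product quenches rhodamine fluorescence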
# assayContext: Biochemical Sfp PPTase activity
Among all 310,000 compounds or so, about 11,000 (3.5%) were called active. About 4% were inconclusive and are not listed. The full list was thinned out, with actives kept by preference.
parameter: Potency

Solved cases (3 shown):
molecule	Potency
COc1cc(CN2CCN(Cc3ccc(C)cc3)CC2)c([N+](=O)[O-])cc1OC	56.2 µM (active)
Cc1cccc2c1-c1sc(C(=O)NCCCN3CCc4ccccc4C3)cc1CO2	44.7 µM (active)
C=CCn1c(CCNC(=O)c2cccs2)n[nH]c1=S	7.94 µM (active)

// next entry
Supply Potency value. Item: CCCCCCC(=O)N(O)C1CC(=O)N(c2ccccc2)C1=O (stereo unspecified)
7.08 µM (active)

---

# targetSystem: 4'-phosphopantetheinyl transferase ffp (Bacillus subtilis) (UniProt Q9F4F7)
# experiment: qHTS Assay for Inhibitors of Bacillus subtilis Sfp phosphopantetheinyl transferase (PPTase);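 also: the enzyme is Sfp with the accession as filed and its product quenches rhodamine fluorescence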;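 as to largest response in the series, negative = inhibition: 0% = enzyme reaction without inhibitor and -100% = no enzyme wells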
# assayContext: Biochemical Sfp PPTase activity
The campaign covered roughly 310,000 compounds. About 11,000 (3.5%) were called active. About 4% were inconclusive and are not listed. This excerpt belongs to a sample that is enriched for actives.
parameter: largest response in the series, negative = inhibition

Example results:
compound	observedMeasurement
CC(=O)c1sc(N/N=C\c2ccc(C)cc2)nc1C	-20.4% (inactive)
COC(=O)c1cc(S(=O)(=O)N2CCN(c3cc(C)ccc3C)CC2)c[nH]1	24.2% (inactive)
COc1ccc(NC(=O)Cn2ncn3c(cc4ccccc43)c2=O)c(OC)c1OC	14.8% (inactive)
CCCCn1c(N)c(N(CC)C(=O)c2ccccc2C(F)(F)F)c(=O)[nH]c1=O	6.91% (inactive)
CCC(=O)c1cn(CCOc2ccccc2OC)c2ccccc12	2.97% (inactive)
CCN(CC)c1ccc(/C=N/Nc2nc(C)cc(=O)[nH]2)cc1	-16.8% (inactive)
O=C(O)CCC(=O)N(Cc1ccccc1)Cc1ccccc1	17.6% (inactive)
O=S(=O)(NCCNS(=O)(=O)c1ccccc1)c1ccccc1	14.7% (inactive)

Respond only with largest response in the series, negative = inhibition recorded for COc1ccc(C(=O)Nc2ccc(NC(=O)C(C)C)nc2)cc1
27.7% (inactive)

Assign largest response in the series, negative = inhibition to the following record: CC(CC(=O)Nc1ccc(F)cc1F)S(=O)(=O)c1ccc2c(c1)NC(=O)CO2 (stereo not drawn)
0.768% (inactive)

Respond only with largest response in the series, negative = inhibition recorded for COc1cccc(CC(=O)N2CCc3nc(COc4ccccc4)c4c(c3C2)CO[C@@H](C)C4)c1
-1.37% (inactive)

Give largest response in the series, negative = inhibition for the following compound: CCC(C)c1ccc(NC(=S)N2CCCC2)cc1 (stereo not drawn)
7.33% (inactive)

Please report the measured largest response in the series, negative = inhibition for COc1ccc(/C=C2\SC(=S)N(CCC(=O)Nc3ccccn3)C2=O)cc1OC
11% (inactive)

Determine its reported largest response in the series, negative = inhibition: COC(=O)c1c(NC(=O)c2ccc(S(=O)(=O)N3CCOCC3)cc2)sc2c1CCN(C(C)C)C2
6.28% (inactive)

Find the measured largest response in the series, negative = inhibition of Cc1ccc(C(=O)N/C(=C\c2ccc(F)cc2)C(=O)NCCN2CCOCC2)cc1 and report it.
8.47% (inactive)
